Organism: Rattus norvegicus
Experiment: Open TG-GATES - Regimen: Daily Repeat
Assay type: toxicity, organism-based, Sprague-Dawley
Design: regimen Daily Repeat, gender Male, age 6 weeks
Conditions: in vivo, po, 0 mg/kg, […], tissue Liver, route gavage, dose level Control, time 7 day

- molecule: "OCCOCCN1CCN(C(c2ccccc2)c2ccc(Cl)cc2)CC1 (stereo not given) [HYDROXYZINE]"
  display_unit: "g"
  LIVER: 12.4
- molecule: "CC[C@H]1[C@@H]2C[C@H]3[C@@H]4N(C)c5ccccc5[C@]45C[C@@H]([C@@H]2[C@H]5O)N3[C@@H]1O [AJMALINE]"
  display_unit: "g"
  LIVER: 12.3
- molecule: "CN(C)C(=N)N=C(N)N [METFORMIN]"
  display_unit: "g"
  LIVER: 11.7
- molecule: "ClC(Cl)(Cl)Cl [CARBON TETRACHLORIDE]"
  display_unit: "g"
  LIVER: 12.5
- molecule: "CC1=C(CC(=O)O)c2cc(F)ccc2/C1=C\\c1ccc([S+](C)[O-])cc1 (stereo not given)"
  display_unit: "g"
  LIVER: 12.7
